Quick list: fold repression per entry.
Molecular target: T1, ECF15_436
T1 chain: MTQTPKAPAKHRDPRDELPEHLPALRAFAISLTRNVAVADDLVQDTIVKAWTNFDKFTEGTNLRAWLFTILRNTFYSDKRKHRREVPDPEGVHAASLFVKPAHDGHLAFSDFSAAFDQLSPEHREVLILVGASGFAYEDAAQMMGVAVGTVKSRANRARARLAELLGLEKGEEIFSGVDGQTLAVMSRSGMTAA
API note: the answer field is a bare number with no unit suffix.

AS11_987 (protein) MNKHPDNNLLEAYASGSIDAVSGLVVATHLETCSKCRAYVNQVEASQANTVSESPSEYSPEFDDMLNDIINAEPVNDNVVIQDTAFVNVAGKSFELPKTLVRFSDLVGSWRSYGGKVFSAQIDLGEDARVSLMYIGENVQIPQHTHRGLESTLVLHGGFSDEDGQYEEGDLMVRDASVKHSPFTQEGEDCLCLTVLTEPMIFTQGVARIFNLFGKGLYP; 3.32

Consider now this further binder.
Query: Quick one: fold repression of AS33_375 (protein) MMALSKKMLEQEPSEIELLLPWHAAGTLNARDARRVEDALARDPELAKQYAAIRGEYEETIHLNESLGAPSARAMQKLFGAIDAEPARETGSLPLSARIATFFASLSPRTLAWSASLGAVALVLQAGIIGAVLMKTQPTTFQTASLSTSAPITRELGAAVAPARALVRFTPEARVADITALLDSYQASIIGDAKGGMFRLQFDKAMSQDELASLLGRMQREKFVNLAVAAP ?
Result: 20.3
